system: MS2 coat protein; experiment: apparent Kd, MS2 coat protein; higher = weaker binding; RNA-MaP array; FMN 200 µM where present; conditions: ligand present: flavin mononucleotide; designed as: OFF switch for flavin mononucleotide
experimentalReadout: apparent Kd (µM)
Report as a plain number; the unit µM is understood.

Below are worked cases with known answers.
# macromoleculeSequence, apparent Kd [µM]
data = [
    ("GUCAGCUCGUGAGGAUAUACAACACUGCUUCGGCAGUGUAUUAAGAUCACAUGAGGAUCACCCAUGUAGAAGGAACGAGCUGAU", 0.0242),
    ("AUUUCGUUAUCAGGAUAUGGACAGGCCUGUCCGUAUUGAGACAGUAACAUGAGGAUCACCCAUGUCCAGAAGGGAUCGAAGUAU", 0.0467),
    ("GGCCUGUUAGGAUAUUAGUAGUAGUCAGAAUAGACUAUUACUGAGAAGGGACAUGAGGAUCACCCAUGUUGGCC", 0.0199),
]

Exercise: Hello, I am looking for reported apparent Kd with MS2 coat protein for CGAUAUUAUAGAGGAUAUGUUUAACAUGAGGAUCACCCAUGUGAGGUGGAAUUAAUGUAUAACUUACAGAAGGCUAUACAAUCG . Could you help?
Key: 0.5

Exercise: Same question, ACCAUUUACUAGUUUUCUAUACAUGAGGAUCACCCAUGUUUUGAGGAUAUCAGCGUGAAACACGCUGAGAAGGCAAAACAUUCG this time
Key: 0.342

Exercise: Same question, AAUGAGUUUCUCACACUGUUCACAUGAGGAUCACCCAUGUACAGAAGGUAGAGACUUCCGGUCGCUAAGGAUAUGUAGAGGGUC this time
Key: 0.00601

Exercise: Same question, CCUCCGUAUUAGGAUAUCGUCCCGGAAACGGGACGAGAAGGAAUAACAUGAGGAUCACCCAUGUUAACGUGAUG this time
Key: 0.0467

Exercise: Same question, AAAGUGUAAGGAUAUGCUGCUCGUCACUUGCGUGAUGAGUAGCAGAAGGUACAUGAGGAUCACCCAUGUAAAAA this time
Key: 0.0383

Exercise: Same question, AAACAUGUCCGAGGAUAUCUGGAAACAUUUCCAAGAGAAGGCGGACAUGAGGAUCACCCAUGUCUCUCCUCAUCAAAUCCAAGA this time
Key: 0.0774

* * *

This listing pairs sequences with measured apparent Kd.
tested on: MS2 coat protein; assay: apparent Kd, MS2 coat protein; higher = weaker binding; RNA-MaP array; FMN 200 µM where present; settings: designed as: OFF switch for flavin mononucleotide; no ligand
Report as a plain number; the unit µM is understood.

# macromoleculeSequence, recordedNumber
rows = [
    ("AAAAAUGGAGGAUAUACAUGAGGAUCACCCAUGUGUGGCUAUACUAUGUGCUCGUCAGGUAGAAGGCCAAAAAA", 0.0312),
    ("CUCGCAGUAAUAGGAUAUCCACAUCCGUGGCCUGUGUGUGACUUAACAUGAGGAUCACCCAUGUUGGAGAAGGAUUACUCAAUA", 0.728),
    ("GAGGAACAUGAGGAUCACCCAUGUGAGGAUAUGCAUAGUGAGGUAGUAGACGUUGAAUGCAGAAGGUACACUGA", 0.0476),
    ("ACUUAUCAUGUAGGAUAUGCGUGGCGAAGCUAUGCAGAAGGACAUGAGGAUCACCCAUGUUUUAGCGUCUGCGUACAGAUGCGU", 0.054),
    ("GUAGCUAGUACAGGAUAUUAGUGCGUGUAGUAUUGAGAAGGGUACAUGAGGAUCACCCAUGUGAUCAAUCACUGUUAAGGUUGC", 0.221),
]

Exercise: What value of measured apparent Kd is listed for UGGGCCUCGUGAGGAUAUACAUGAGGAUCACCCAUGUAAUAAAGUGAACGGAGGAAACUCCGAAUGUAGAAGGCACGAGGCUCA ?
Key: 0.0195

Exercise: Same question, ACCGCUCGAGGAUAUACAUGAGGAUCACCCAUGUAACCCAGAAGCAAGGCCUCAGGAUGUAGAAGGCGACGCAA this time
Key: 0.014

* * *

system: MS2 coat protein; assay: apparent Kd, MS2 coat protein; higher = weaker binding; RNA-MaP array; theophylline 2 mM where present; details: designed as: OFF switch for theophylline; no ligand
Respond with condition met for apparent Kd values of 10 nM and above, condition not met for values below.

Worked cases, answers included:
# macromoleculeSequence, labelValue
records = [
    ("AAACAUGACAUGGAUACCAGACACAUGAGGAUCACCCAUGUUGAGGAUCACCCAUGUCCCGUCCCUUGGCAGCCAGCAUGAGGAU", "condition not met"),
    ("UUAUUUAUAAAUGAUACCAGCCGAUUGGCCGCAAAUCCUAACAUGAGGAUCACCCAUGUCGGCCCUUGGCAGCAUUUAUGGGUUU", "condition met"),
    ("AUAUGAAAGAGUGAUACCAGACUACAUGAGGAUCACCCAUGUGACAUUUAAAUAUCAUUUGUCCCUUGGCAGCACAUUAAGUACA", "condition met"),
    ("AAACGUUGCUGCGAUACCAGACAUGAGGAUCACCCAUGUACCAAGGUACGAAAAUAACAUGUCCCUUGGCAGCGCAGCAACGAAA", "condition met"),
]

Exercise: Check this sequence for apparent Kd at or above 10 nM: AGGAACAUGAGGAUCACCCAUGUAAGCGAUACCAGUGAUAUGUUGCGCCCUUGGCAGCGCAAGUGUGUGUGAAAGAUGUAAGAUU
Key: condition met

* * *

tested on: MS2 coat protein; assay: apparent Kd, MS2 coat protein; higher = weaker binding; RNA-MaP array; FMN 200 µM where present; conditions: ligand present: flavin mononucleotide; designed as: OFF switch for flavin mononucleotide
experimentalReadout: apparent Kd

Below are worked cases with known answers.
# macromoleculeSequence, targetOfAssay, apparent Kd
data = [
    ("UAAUGUAUAUAGGAUAUCUAGCUGGAUACAGCUAGAGAAGGAUGUACAUGAGGAUCACCCAUGUAAAUCGAUCA", "MS2 coat protein", "55.7 nM"),
    ("ACUUAUCAUGUAGGAUAUGCGUGGCGAAGCUAUGCAGAAGGACAUGAGGAUCACCCAUGUUUUAGCGUCUGCGUACAGAUGCGU", "MS2 coat protein", "192 nM"),
    ("CCGCUAAUAGGAUAUACAUGAGGAUCACCCAUGUCACUCUUCAUUGGUGUCUCUUCAAGUAGAAGGGUUGCUCA", "MS2 coat protein", "28.1 nM"),
    ("GAGAAACAUGAGGAUCACCCAUGUGAGGAUAUGCGUACGUUGUCCGUAGGCGACGUGCGCAGAAGGCGCAAAGG", "MS2 coat protein", "118 nM"),
    ("AUGUUUCAUGUAGGAUAUGCAUAGCGUUGCUAUGCAGAAGGACAUGAGGAUCACCCAUGUAUAUUAUCAUUACAUAUCAUACAU", "MS2 coat protein", "546 nM"),
]

Exercise: What value of measured apparent Kd is listed for GGAUGACAAAGUCAUCCUAUUCGAACAUGAGGAUCACCCAUGUAGGAUAUGCAACUCAAAGAGUUGCAGAAGGACAUGUGCUUU ?
Key: 166 nM

Exercise: Same question, AUGUGAGCAGGAUAUGCAGGUGUGCCGGAAGAAAGAAGAGGACAUGAGGAUCACCCAUGUAGAAGGGCUAGCCC this time
Key: 31.3 nM

* * *

tested on: MS2 coat protein; assay: apparent Kd, MS2 coat protein; higher = weaker binding; RNA-MaP array; FMN 200 µM where present; details: ligand present: flavin mononucleotide; designed as: OFF switch for flavin mononucleotide
experimentalReadout: apparent Kd (nM)
Report as a plain number; the unit nM is understood.

Exercise: What value of measured apparent Kd is listed for UCCUUGUCCUGAGGAUAUCCGUGGUUACCGAAAGGAGAAGGCAGGACAUGAGGAUCACCCAUGUACCCAGAAAACGUGCAGAGA ?
Key: 467

Exercise: Same question, CAGAAGUCAGGAUAUGCAUGGCGGGACUUGCGUCGUGGCGUGCAGAAGGGACAUGAGGAUCACCCAUGUAAAGA this time
Key: 62.4

Exercise: Same question, GCACGGUAUGUAGGAUAUGCAUAGCAUUGCUAUGCAGAAGGACAUGAGGAUCACCCAUGUAUGUAUUCCAUACUAAUCCCGUGC this time
Key: 5.79

Exercise: Same question, UAGUAUAAGGGCAUUAAACAUGAGGAUCACCCAUGUACGAUAGAGGAUAUGCAUUUCAGUUUAGAGUAGAAGGUUAGAGAAUAU this time
Key: 47.4

Exercise: Same question, CCUUUGUCAGGAUAUCGAAAAGGGAGGCCAAAGGCCUCCGGUGAGAAGGGACAUGAGGAUCACCCAUGUGAAAA this time
Key: 383

Exercise: Same question, CAUUAUUAUCGAGGAUAUCGUAUUGAGAUACUAUGAGAAGGCGGGAUAAACAUGAGGAUCACCCAUGUGAGCCGGAUGCUUGUG this time
Key: 14.8

Exercise: Same question, UUGAUGUCAUCAGGAUAUAGUAUUUAAGACAUAUAUUUUUUCAAACAUGAGGAUCACCCAUGUCGCUAGAAGGGAUUAUAGAUU this time
Key: 35.6
